Assay: APR_HepG2_P-H2AX_72hr: Apredica 72-hour HepG2 Assay for H2AX Phosphorylation (AID 2282916);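 also: phospho-histone H2A.x immunostain intensity per cell marking DNA damage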
Details: imaging, actives raise or lower the signal
Active and inactive are the calls of the source. The calls were made as follows: active = hit-call score of the fitted dose curve at least 0.9, where 1 is the maximum; inactive = score below 0.9.
QUANTITY_MEASURED: AC50

Look over these answered cases.
{"CHEMICAL_STRING": "CC(C)(C)c1cc(/C=C2\\SC(N)=NC2=O)cc(C(C)(C)C)c1O", "AC50": "41.6 µM (active)"}
{"CHEMICAL_STRING": "Cc1cn([C@H]2C[C@H](N=[N+]=[N-])[C@@H](CO)O2)c(=O)[nH]c1=O", "AC50": "inactive"}
{"CHEMICAL_STRING": "C[C@]12CC[C@@H]3c4ccc(O)cc4CC[C@H]3[C@@H]1CC[C@H]2O", "AC50": "inactive"}
{"CHEMICAL_STRING": "CCCCOC(=O)CC(CC(=O)OCCCC)(OC(C)=O)C(=O)OCCCC", "AC50": "56.2 µM (active)"}
{"CHEMICAL_STRING": "Clc1cc(Cl)c2c(c1)N=C1CCCCCN1C2", "AC50": "inactive"}

Challenge: GET /values?readout=AC50&item= "NC(=O)c1nc(-c2cccc(-c3cc(F)ccc3OCC(F)(F)C(F)(F)F)c2)n[nH]1"
Response given: 111 µM (active)

Challenge: Field entry: "COc1cccc([C@H](O)C2CCN(CCc3ccc(F)cc3)CC2)c1OC"
Response given: inactive

Challenge: Quick one: "CCOC(=O)O[C@H](C)OC(=O)c1ccc2c(c1)cc(C(=O)NC1CCN(C(C)C)CC1)n2Cc1cc(-c2ccc(Cl)s2)on1"
Response given: inactive

Challenge: Entry "Oc1ccc2ccccc2c1" please
Response given: inactive

Challenge: # iterate: "O=C=NCCCCCCN=C=O"
Response given: inactive

Challenge: Lookup "O=C(O)c1ccccc1C(=O)OCc1ccccc1"
Response given: inactive
